Overview of reported EC50 across a group of binders:
biological target: T1, human RAGE expressed on CHO cells (human, UniProt Q15109 23-404); assay: cell ELISA on CHO-RAGE cells, A450 corrected for control CHO cells
T1 construct: whole, on cells; also called CHO-RAGE cells; cell surface expressed human RAGE
T1 sequence (Q15109 23-404): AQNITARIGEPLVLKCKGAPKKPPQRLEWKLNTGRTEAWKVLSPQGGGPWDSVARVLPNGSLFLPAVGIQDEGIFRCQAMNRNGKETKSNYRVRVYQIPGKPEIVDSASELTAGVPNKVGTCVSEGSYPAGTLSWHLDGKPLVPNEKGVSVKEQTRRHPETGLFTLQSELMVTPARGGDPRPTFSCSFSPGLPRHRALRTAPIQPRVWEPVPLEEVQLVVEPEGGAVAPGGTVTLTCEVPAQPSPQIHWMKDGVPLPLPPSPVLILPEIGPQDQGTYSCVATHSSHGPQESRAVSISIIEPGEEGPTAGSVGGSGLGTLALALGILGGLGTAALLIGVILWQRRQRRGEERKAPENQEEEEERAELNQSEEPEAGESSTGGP
Write down the numeric answer in µg/mL and omit the unit.

{"columns": ["binder", "units label", "EC50"],
 "data": [
  ["2E6 scFv-Fc fusion (Fc fusion, also called 2E6 (c); not shown: wild-type human IgG Fc (hinge and constant domains)) DIQMTQSPSSLSASVGDRVTITCRASQDVGIYVNWFQQKPGKAPRRLIYRATNLADGVPSRFSGSRSGTDFTLTISSLQPEDFATYYCLEFDEHPLTFGGGTKVEIKDGGGSGGGGSGGGGNSEVQLVESGVGLVQPGGSLRLSCAASGFTFNNYWMTWVRQAPGKGLEWVASIDNSGDNTYYPDSVKDRFTISRDNAKNSLYLQMNSLRAEDTAVYYCARGGDITNGLDYWGQGTLVTVSS", "µg/mL", 0.113]
]}

We now examine a further binder.
Please give the measured EC50 for this binder: 3B3 scFv-Fc fusion (Fc fusion, not shown: wild-type human IgG Fc (hinge and constant domains)) DIQMTQSPSSLSASVGDRVTITCRASQDVGFYVNWFQQKPGKAPRRLIYRATNLADGVPSRFSGSRSGTDFTLTISSLQPEDFATYYCLEFDEHPLTFGGGTKVEIKDGGGSGGGGSGGGGSSEVQLVESGGGLVQPGGSLRLSCAASGFTFNNYWMTWVRQAPGKGLEWVASIDNSGDNTYYPDSVKDRFTISRDNAKNSLYLQMNSLRAEDTAVYYCARGGDITTGLDYWGQGTLVTVSS
0.541
